Test system: cOS Brandie primary
Test: Tumor cell growth inhibition, cOS Brandie primary
Format: cell-based
Conditions: Canis lupus familiaris; Canine Osteosarcoma cell line cOS Brandie primary
measured.endpoint: IC50 (µM)
Only the number, expressed in µM, is required.

test.smiles	target.or.system	IC50 [µM]
CCOC(=O)[C@]1(c2ccccc2)N=C(c2ccc(OC)cc2)N(Cc2ccccc2)[C@@H]1c1ccc(NCc2ccccc2)cc1	cOS Brandie primary	3.16

Attention now shifts to the item below.
Lab note: measured IC50 of "CCOC(=O)[C@]1(c2ccccc2)N=C(c2ccccc2)N(Cc2ccccc2)[C@@H]1c1ccccc1" was 10

###

Tested on: MCT C2
Assay: Tumor cell growth inhibition, MCT C2
Type: cell-based
Details: Canis lupus familiaris; Canine Mastocytoma cell line MCT C2
measured.endpoint: pIC50
Please keep in mind that pIC50 is minus log10 of the molar concentration; only the number is needed.

Sure, the documented pIC50 for "CCOC(=O)[C@]1(c2ccccc2)N=C(c2ccc(OC)cc2)N(Cc2ccccc2)[C@@H]1c1ccc(NCc2ccccc2)cc1" is 4.00
